Tested on: 855422-203-R-J1-PDC complex spheroid viability;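 note: drug exposure lasted 7 days starting on day 3 after seeding; luminescence viability as percent of DMSO vehicle wells = 100%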
Test: Anticancer human tumor 855422-203-R-J1-PDC patient-derived bladder carcinoma cell line growth inhibition
Settings: second compound 1 µM; first compound 0.00316 µM; hits give low values
MEASUREMENT TYPE: viability, T/C (%)
Your answer is read as %, so omit the unit and give the number.

Measured on 855422-203-R-J1-PDC complex spheroid viability, CC1COCCN1c1cc(-c2ccnn2C)c2ccnc(-c3ccn[nH]3)c2n1 (stereo unspecified) + NC1CC1c1ccc(-c2cccc(O)c2)cc1 has a documented viability, T/C of 94.7

Test item Cn1ncnc1C1c2n[nH]c(=O)c3cc(F)cc(c23)NC1c1ccc(F)cc1 (stereo unspecified) + NC1CC1c1ccc(-c2cccc(O)c2)cc1 ; 855422-203-R-J1-PDC complex spheroid viability; reported viability, T/C was 96.5

855422-203-R-J1-PDC complex spheroid viability viability, T/C of CC[C@@]1(O)C(=O)OCc2c1cc1n(c2=O)Cc2cc3c(CN(C)C)c(O)ccc3nc2-1 + NC1CC1c1ccc(-c2cccc(O)c2)cc1 is 84.8

// returns viability, T/C for O=C(C=Cn1cnc(-c2cc(C(F)(F)F)cc(C(F)(F)F)c2)n1)NNc1cnccn1 + NC1CCC(NC2CC2c2ccccc2)CC1 with 855422-203-R-J1-PDC complex spheroid viability; value = 128

For the compound COc1cc(Nc2ncc3c(n2)-c2ccc(Cl)cc2C(c2c(F)cccc2OC)=NC3)ccc1C(=O)O + NC1CC1c1ccc(-c2cccc(O)c2)cc1 , the measured viability, T/C on 855422-203-R-J1-PDC complex spheroid viability was 82.5

The compound CC(C)CC(NC(=O)C(Cc1ccccc1)NC(=O)c1cnccn1)B(O)O (stereo unspecified) + NC1CCC(NC2CC2c2ccccc2)CC1 , when measured on 855422-203-R-J1-PDC complex spheroid viability, yielded viability, T/C of 0.03

Form field, viability, T/C with 855422-203-R-J1-PDC complex spheroid viability, item Cn1ncnc1C1c2n[nH]c(=O)c3cc(F)cc(c23)NC1c1ccc(F)cc1 (stereo unspecified) + NC1CCC(NC2CC2c2ccccc2)CC1 : 109

Per the reported 855422-203-R-J1-PDC complex spheroid viability data, Nc1ncn(C2CC(O)C(CO)O2)c(=O)n1 (stereo unspecified) + NC1CC1c1ccc(-c2cccc(O)c2)cc1 has viability, T/C of 84.9

Observed viability, T/C on 855422-203-R-J1-PDC complex spheroid viability, entry Nc1ncn(C2CC(O)C(CO)O2)c(=O)n1 (stereo unspecified) + NC1CCC(NC2CC2c2ccccc2)CC1 , equals 88.6

Query COc1cc(Nc2ncc3c(n2)-c2ccc(Cl)cc2C(c2c(F)cccc2OC)=NC3)ccc1C(=O)O + NC1CCC(NC2CC2c2ccccc2)CC1 on 855422-203-R-J1-PDC complex spheroid viability; viability, T/C returned: 95.7

Case CC(C)CC(NC(=O)CNC(=O)c1cc(Cl)ccc1Cl)B1OC(=O)CC(CC(=O)O)(C(=O)O)O1 (stereo unspecified) + NC1CC1c1ccc(-c2cccc(O)c2)cc1 , 855422-203-R-J1-PDC complex spheroid viability, viability, T/C recorded as 3.81

src = PubChem BioAssay AID1918943
